Where do these numbers come from? They come from patent US9073862B2.

molecular target: KCNQ2/3 channels (Homo sapiens, UniProt O43525+O43526); construct: expressed in transfected cells; host or cells: CHO-K1; assay: Fluorescence assay using a voltage sensitive dye (fluorimetry); type: cell-based; details: CHO-K1 cells expressing KCNQ2/3 channels; relative to retigabine = 100%; read-out: Fluorimetry % efficacy (retigabine = 100%)
Listed here: items and their measured Emax.

# mol-smiles, result-units, Emax
data = [
    ("COCCOc1nc2cc(C(F)(F)F)ccc2c(C)c1C(=O)NCc1cccc(F)c1", "%", 92),
    ("CCOc1nc2cc(C(F)(F)F)ccc2c(C)c1C(=O)NCc1cccc(C)c1", "%", 111),
    ("COc1nc2cc(C(F)(F)F)ccc2c(C)c1C(=O)NCc1ccc(F)c(C)c1", "%", 73),
    ("CCOc1nc2cc(C(F)(F)F)ccc2c(C)c1C(=O)NCc1ccc(C)c(F)c1", "%", 146),
]
